assay: Cellular toxicity assay in macrophages; assay type: cell-based, human; settings: human; Table 8A; first value of the cell; read-out: Cytotoxicity: MTT IC50, Macrophages
Outcome Measure: IC50 (µM)

• C[C@@H]1C[C@@H]([C@H](O)CC2CC(=O)NC(=O)C2)C(=O)[C@@H](C)C1 = 6.9

====

test: Cellular toxicity assay in Vero cells; type: cell-based; details: African green monkey; Table 8A; MTT; read-out: Cytotoxicity: MTT IC50, Vero
Outcome Measure: IC50 (µM)

• C[C@@H]1C[C@@H]([C@H](O)CC2CC(=O)NC(=O)C2)C(=O)[C@@H](C)C1 = 0.7

====

experiment: Cellular toxicity assay in Vero cells; assay type: cell-based; settings: African green monkey, Vero cells, Table 8; read-out: Cytotoxicity IC50, Vero
Reported IC50 is given for each of the following compounds.
Outcome Measure: IC50

• C#C[C@]1(CO)O[C@@H](n2cnc3c(N)nc(F)nc32)[C@H](O)[C@@H]1O [drawing 61] = > 100 µM
• C#C[C@]1(CO)O[C@@H](n2cnc3c(N)nc(F)nc32)C[C@@H]1O [drawing 60] = ≥ 100 µM

====

test system: HIV; experiment: HIV assay in PBM cells; format: cell-based; settings: Human immunodeficiency virus 1, PBMC, read-out: Antiviral Potency PBM Cells - EC50/90: EC50
Outcome Measure: EC50

- C#C[C@]1(COP(=O)(N[C@@H](C)C(=O)OC(C)C)Oc2ccccc2)O[C@@H](n2ccc(=O)[nH]c2=O)[C@H](O)[C@@H]1O (stereo partly shown) [drawing 77]: > 10 µM

====

tested on: HIV; experiment: HIV assay in macrophages; assay type: cell-based; settings: Table 5A
Outcome Measure: Antiviral Potency Macrophages - EC50/90: EC90

• C#C[C@]1(CO)O[C@@H](n2cnc3c(N)nc(F)nc32)C[C@@H]1O [drawing 78] = 7e-06 nM
• C#C[C@]1(CO)O[C@@H](n2ccc(=O)[nH]c2=O)[C@H](O)[C@@H]1O [drawing 76] = > 100000 nM
• O=c1c2cc(F)ccc2sn1-c1ccc2c(c1)OCO2 [drawing 81] = 300 nM
• C#C[C@]1(COP(=O)(N[C@@H](C)C(=O)OC(C)C)Oc2ccccc2)O[C@@H](n2ccc(=O)[nH]c2=O)[C@H](O)[C@@H]1O (some centres unmarked) [drawing 77] = 9 ± 7 nM
• C#C[C@]1(CO)O[C@@H](n2cnc3c(N)nc(F)nc32)[C@H](O)[C@@H]1O [drawing 79] = 20 ± 10 nM

====

test system: HIV; assay: HIV assay in macrophages; type: cell-based; settings: Table 5A
Field: label. Allowed values: Condition met (Antiviral Potency Macrophages - EC50/90: EC50 < 0.1 nM) or Condition not met (Antiviral Potency Macrophages - EC50/90: EC50 >= 0.1 nM).

• C#C[C@]1(CO)O[C@@H](n2cnc3c(N)nc(F)nc32)C[C@@H]1O [drawing 78] = Condition met
• C#C[C@]1(CO)O[C@@H](n2ccc(=O)[nH]c2=O)[C@H](O)[C@@H]1O [drawing 76] = Condition not met
• C#C[C@]1(CO)O[C@@H](n2cnc3c(N)nc(F)nc32)[C@H](O)[C@@H]1O [drawing 79] = Condition not met
• O=c1c2cc(F)ccc2sn1-c1ccc2c(c1)OCO2 [drawing 81] = Condition not met

====

test: Cellular toxicity assay in CEM cells; type: cell-based; details: human, CEM lymphoblastoid cells, Table 8; read-out: Cytotoxicity IC50, CEM
pIC50: −log10 of the molar value.
Outcome Measure: pIC50

• C#C[C@]1(CO)O[C@@H](n2cnc3c(N)nc(F)nc32)[C@H](O)[C@@H]1O [drawing 61] = 4.28
• C#C[C@]1(CO)O[C@@H](n2cnc3c(N)nc(F)nc32)C[C@@H]1O [drawing 60] = 5.17

====

Tested on: HIV
Test: HIV assay in macrophages
Type: cell-based
Settings: Human immunodeficiency virus 1, Macrophage, Table 5 (Example 8)
Procedure: PBM cells or macrophages were incubated with various concentrations of antiviral agents for 6 days PBM cells) or […] (macrophages), followed by harvest of supernatants and quantification of extracellular HIV using the RT assay or p24 assays as previously described (Gavegnano and Schinazi et al, 2012, AAC). AZT (positive control), no drug controls, or virus alone were also performed in each assay. Assays were performed in 8 independent experiments. […]
Outcome Measure: EC90

* CN(C)c1cccc(-c2c3c(=O)n(-c4ccccc4Cl)[nH]c3cc(=O)n2C)c1 [drawing 73] | 300 nM
* COc1ccc(NC(=O)Nc2ccc(N)cc2)cc1 [drawing 75] | 100 nM
* C#C[C@]1(CO)O[C@@H](n2cnc3c(N)nc(F)nc32)C(O)C1O (some centres unmarked) | 20 nM
* CC(=O)c1ccc2c(c1)Nc1ccccc1S2 [drawing 74] | 200 nM
* C#C[C@]1(CO)O[C@@H](n2cnc3c(N)nc(F)nc32)CC1O (some centres unmarked) | 0.01 nM

====

test: Cellular toxicity assay in Huh7 cells; format: cell-based; details: human, Huh7 cells; Table 8B; MTT/MTS (head line); read-out: Cytotoxicity: IC50, Huh7
pIC50: −log10 of the molar value.
Outcome Measure: pIC50

* O=c1c2cc(F)ccc2sn1-c1ccc2c(c1)OCO2 [drawing 70] | 3.42

====

test: Bone marrow cytotoxicity, GM lineage (CFU-GM); type: cell-based, human; conditions: human, primary bone marrow mononuclear cells, GM lineage (CFU-GM); Table 8A; first value of the cell; read-out: Cytotoxicity: MTT IC50, Bone Marrow (GM Lineage)
Outcome Measure: IC50 (nM)

- C#C[C@]1(CO)O[C@@H](n2cnc3c(N)nc(F)nc32)[C@H](O)[C@@H]1O [drawing 68]: 400
- C#C[C@]1(CO)O[C@@H](n2cnc3c(N)nc(F)nc32)C[C@@H]1O [drawing 67]: 1900

====

assay: Cellular toxicity assay in macrophages; type: cell-based, human; settings: human, macrophages, Table 8; read-out: Cytotoxicity IC50, Macrophages
Reported IC50 is given for each of the following compounds.
Outcome Measure: IC50

* COc1ccc(NC(=O)Nc2ccc(N)cc2)cc1 [drawing 64] | > 10000 nM
* C#C[C@]1(CO)O[C@@H](n2cnc3c(N)nc(F)nc32)C[C@@H]1O [drawing 60] | 2400 nM
* CC(=O)c1ccc2c(c1)Nc1ccccc1S2 [drawing 63] | > 10000 nM
* C#C[C@]1(CO)O[C@@H](n2cnc3c(N)nc(F)nc32)[C@H](O)[C@@H]1O [drawing 61] | 700 nM
* CN(C)c1cccc(-c2c3c(=O)n(-c4ccccc4Cl)[nH]c3cc(=O)n2C)c1 [drawing 62] | > 10000 nM

====

assay: Cellular toxicity assay in PBM cells; assay type: cell-based; settings: human, PBM cells, Table 8; read-out: Cytotoxicity IC50, PBM
pIC50: −log10 of the molar value.
Reported pIC50 is given for each of the following molecules.
Outcome Measure: pIC50

* C#C[C@]1(CO)O[C@@H](n2cnc3c(N)nc(F)nc32)C[C@@H]1O [drawing 60] | 5.96
* C#C[C@]1(CO)O[C@@H](n2cnc3c(N)nc(F)nc32)[C@H](O)[C@@H]1O [drawing 61] | 5.49

====

assay: Bone marrow cytotoxicity, erythroid lineage (BFU-E); assay type: cell-based, human; settings: human; Table 8A; first value of the cell; read-out: Cytotoxicity: MTT IC50, Bone Marrow (Erythroid Lineage)
Outcome Measure: IC50 (µM)

* C#C[C@]1(CO)O[C@@H](n2cnc3c(N)nc(F)nc32)[C@H](O)[C@@H]1O [drawing 68] | 0.7
* C#C[C@]1(CO)O[C@@H](n2cnc3c(N)nc(F)nc32)C[C@@H]1O [drawing 67] | 2.4

====

Reported IC50 is given for each of the following compounds.
experiment: Cellular toxicity assay in PBM cells; format: cell-based; conditions: human; Table 8A; MTT; read-out: Cytotoxicity: MTT IC50, PBM
Outcome Measure: IC50

• C[C@@H]1C[C@@H]([C@H](O)CC2CC(=O)NC(=O)C2)C(=O)[C@@H](C)C1 = 2.5 µM
• C#C[C@]1(COP(=O)(N[C@@H](C)C(=O)OC(C)C)Oc2ccccc2)O[C@@H](n2ccc(=O)[nH]c2=O)[C@H](O)[C@@H]1O (some centres unmarked) [drawing 66] = > 100 µM

====

experiment: Cellular toxicity assay in Vero cells; format: cell-based; settings: African green monkey, Vero cells, Table 8B; MTT (head line); read-out: Cytotoxicity: IC50, Vero
Outcome Measure: IC50 (µM)

* O=c1c2cc(F)ccc2sn1-c1ccc2c(c1)OCO2 [drawing 70] | 20.1

====

Reported pIC50 is given for each of the following compounds.
test: Cellular toxicity assay in PBM cells; assay type: cell-based; conditions: human, PBM cells, Table 8; read-out: Cytotoxicity IC50, PBM
pIC50: −log10 of the molar value.
Outcome Measure: pIC50

* CN(C)c1cccc(-c2c3c(=O)n(-c4ccccc4Cl)[nH]c3cc(=O)n2C)c1 [drawing 62] | < 4.00
* COc1ccc(NC(=O)Nc2ccc(N)cc2)cc1 [drawing 64] | < 4.00
* CC(=O)c1ccc2c(c1)Nc1ccccc1S2 [drawing 63] | < 4.00
